system: HepG2 (L1.3 5'UTR promoter firefly luciferase reporter); experiment: L1 promoter activity (FLuc/RLuc) relative to DMSO vehicle control (% of control); higher = stronger L1 promoter activation; conditions: concentration (uM unless unit written): 200; treatment time: 24 h
For each of the compounds below, state its L1 promoter activity.
// no unit, no text: just the number

Incoming: Need L1 promoter activity, item Cc1cccc(Nc2cc(Cl)nc(SCC(=O)O)n2)c1C
Outgoing: 82.7

Incoming: Data request, read-out L1 promoter activity, for Cc1cn([C@H]2C[C@H](N=[N+]=[N-])[C@@H](CO)O2)c(=O)[nH]c1=O [Azidothymidine]
Outgoing: 104

Incoming: Dear colleague, I am looking for the recorded L1 promoter activity of the following compound: CN(Cc1cnc2nc(N)nc(N)c2n1)c1ccc(C(=O)N[C@@H](CCC(=O)O)C(=O)O)cc1 [Methotrexate]
Outgoing: 142

Incoming: Entry O=C(O)c1nn(Cc2ccc(Cl)cc2Cl)c2ccccc12 [Lonidamine] : reported L1 promoter activity = ?
Outgoing: 91.6
